Molecular target: UniProtKB O00519
Sequence (O00519 whole entry): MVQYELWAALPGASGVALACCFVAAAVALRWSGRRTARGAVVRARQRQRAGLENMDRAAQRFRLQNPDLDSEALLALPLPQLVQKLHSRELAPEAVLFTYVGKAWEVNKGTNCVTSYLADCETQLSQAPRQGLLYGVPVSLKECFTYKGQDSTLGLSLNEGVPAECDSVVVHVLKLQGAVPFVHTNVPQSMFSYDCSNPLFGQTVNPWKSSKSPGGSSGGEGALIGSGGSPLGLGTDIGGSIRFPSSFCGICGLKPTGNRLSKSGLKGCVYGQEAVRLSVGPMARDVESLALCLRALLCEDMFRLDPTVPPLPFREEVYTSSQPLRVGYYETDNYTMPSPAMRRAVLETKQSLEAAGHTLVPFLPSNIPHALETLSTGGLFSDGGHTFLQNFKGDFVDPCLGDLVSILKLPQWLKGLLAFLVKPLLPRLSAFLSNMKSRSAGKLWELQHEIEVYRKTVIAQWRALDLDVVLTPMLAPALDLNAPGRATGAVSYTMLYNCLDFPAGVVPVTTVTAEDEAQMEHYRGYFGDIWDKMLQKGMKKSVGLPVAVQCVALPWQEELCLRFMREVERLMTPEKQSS
Experiment: Assay Method 1: human FAAH assay (3H-anandamide hydrolysis in cell homogenate)
Assay type: biochemical
Set-up: expressed in transfected cells; host or cells: SK-N-MC cells stably transfected with human FAAH cDNA (G418 selection); alternatively T84 cell pellets
Details: read-out: Assay 1 IC50
pIC50: −log10 of the molar value. Counter-ions that a name gives are not always drawn.
Below, each entry is listed alongside its reported pIC50.

{"compound": "O=C(Nc1ccc(-n2nccn2)nc1)N1CCC2(CCCN(Cc3cccc(Oc4ccc(Cl)cc4)c3)C2)CC1", "relation.qualifier": "=", "pIC50": 6.00}
{"compound": "O=C(Nc1cccnc1)N1CCCC2(CCN(Cc3cccc(Oc4ccc(Cl)cc4)c3)C2)C1 (stereo not shown)", "relation.qualifier": "<", "pIC50": 5.00}
{"compound": "O=C(Nc1noc2ccccc12)N1CC2(CCN(Cc3cccc(Oc4ccc(Cl)cc4)c3)CC2)C1", "relation.qualifier": "=", "pIC50": 6.09}
{"compound": "O=C(Nc1ccnc(C(F)(F)F)n1)N1CC2(CCN(Cc3cccc(Oc4ccc(Cl)cc4)c3)CC2)C1 [Example 71, trifluoroacetic acid salt]", "relation.qualifier": "<", "pIC50": 5.00}
